tested on: PF3D7_0420300 AP2 domain 1 (GST-tagged); experiment: gcPBM binding intensity (ln(normalized median fluorescence intensity)); higher = stronger DNA binding
Whole data set: some 25,000 sequences, median “ln(normalized median fluorescence intensity)” near 9.3, cut for the highest 2% near 10. What follows is part of a selection rich in the highest values, with near analogues and random picks from the rest.
Recorded gcPBM binding intensity (ln) values for a group of sequences are listed next.
Keep it simple and answer with nothing but the number.

Worked cases, answers included:
ordered-residues: AATACTCAAAAGAATCGTACAAACAACACTCCCACG [XGTACX_site7564]
metric-name: gcPBM binding intensity (ln)
measured-result: 9.4

ordered-residues: AAAAAAAAATATCACACACACATAAATATAAACCAA [CACACA_site2279]
metric-name: gcPBM binding intensity (ln)
measured-result: 10.1

ordered-residues: GTAATACACAGACACACACACATACACATATTTATA [CACACA_site7313]
metric-name: gcPBM binding intensity (ln)
measured-result: 10

ordered-residues: TATAAACACCCATATAAACACACATACATACATACA [CACACA_site8791]
metric-name: gcPBM binding intensity (ln)
measured-result: 9.58

ordered-residues: AAAAAAAAAAATATCACACACACATAAATATAAACC [CACACA_site2278]
metric-name: gcPBM binding intensity (ln)
measured-result: 10.2

ordered-residues: ATAAATAAAAAACACACACACACACCCAAAAAAAAA [CACACA_site2624]
metric-name: gcPBM binding intensity (ln)
measured-result: 10.1

ordered-residues: TACATACATAAACACACACACACATATATATATATA [CACACA_site8953]
metric-name: gcPBM binding intensity (ln)
measured-result: 10.1

ordered-residues: TAAACACCCATATAAACACACATACATACATACATA [CACACA_site5383]
metric-name: gcPBM binding intensity (ln)
measured-result: 9.7

Quick check: gcPBM binding intensity (ln) of AAAAAAAAAAAAAAAACACACATACACGCACGCACA [CACACA_site7569] ?
9.72

Quick check: gcPBM binding intensity (ln) of TATATAAAGAAACACACACACACCTTATAATTATTA [CACACA_site4062] ?
10

Quick check: gcPBM binding intensity (ln) of TATATAAATGGACACACACACACCTTATAATTATTA [CACACA_site6093] ?
10.2

Quick check: gcPBM binding intensity (ln) of TAGATACATAAACACACACACACATACATATATACA [CACACA_site9139] ?
10.3

Quick check: gcPBM binding intensity (ln) of AACTAATAAAAAAAAAAAACATTAAACAGGACAAAT [XGTACX_negctrl_site287] ?
9.78

====

system: PF3D7_0420300 AP2 domain 1 (GST-tagged); assay: gcPBM binding intensity (ln(normalized median fluorescence intensity)); higher = stronger DNA binding
Whole data set: some 25,000 sequences, median “ln(normalized median fluorescence intensity)” near 9.3, cut for the highest 2% near 10. The entries come from a sample that favours the highest values as a whole.
metric-name: gcPBM binding intensity (ln)
Keep it simple and answer with nothing but the number.

Worked cases, answers included:
ordered-residues: AAAAAGAAAAAACTTACACACATATATACACCCATG [CACACA_site8079]
gcPBM binding intensity (ln): 10.1
--
ordered-residues: TCACCATATAAACGTGCACACTACAAAAATATATAA [CACACA_site5413]
gcPBM binding intensity (ln): 9.26
--
ordered-residues: AAAAAAAAAAAACACACACACACACTAGTACATACA [CACACA_site4551]
gcPBM binding intensity (ln): 10.2
--
ordered-residues: TGTAAGAAATTGAGCGCACACATACATCTGTGGGAT [CACACA_site4945]
gcPBM binding intensity (ln): 9.55

Shift focus to the following entry.
Quick check: gcPBM binding intensity (ln) of AAACAAATAAAATTTATTAAAAAGGTCATATTATTA [CACACA_negctrl_site85] ?
9.12
